Tested on: HEK-293T
Assay: Multiplex assay against HEK293T
Assay type: toxicity, cell-based
Details: human, 12 h, 10 µM, compound concentration 10 uM, replicate 1
Simple rule here: Total Cell Count less than 300 is YES, otherwise NO.

Worked examples follow.
INSERT INTO assay_data (molecule, category) VALUES
  ('CN(C)C(=O)C(CCN1CCC(O)(c2ccc(Cl)cc2)CC1)(c1ccccc1)c1ccccc1.Cl [LOPERAMIDE HYDROCHLORIDE]', 'YES'),
  ('Cc1ccc2nc(NCCN)c3ncc(C)n3c2c1.O=C(O)C(F)(F)F.O=C(O)C(F)(F)F', 'NO'),
  ('Cc1ccc(C(=O)Nc2cccc(C(F)(F)F)c2)cc1Nc1nc(-c2cccnc2)nc2c1cnn2C', 'YES'),
  ('Cn1nc(C(F)(F)F)cc1-c1cnc(N2CCc3cc(S(=O)(=O)Nc4c(F)cc(Cl)cc4F)cc(N4CCCC4=O)c32)nc1', 'NO'),
  ('CCN1CCN(Cc2ccc(Nc3ncc(F)c(-c4cc(F)c5nc(C)n(C(C)C)c5c4)n3)nc2)CC1.CS(=O)(=O)O', 'YES'),
  ('COc1cc2ncnc(Nc3ccc(F)c(Cl)c3)c2cc1NC(=O)/C=C/CN1CCCCC1 [DACOMITINIB ANHYDROUS]', 'NO'),
  ('O=C(Nc1ccc(-c2ccnc(Nc3ccc(N4CCOCC4)cc3)n2)cc1)[C@@H]1CCCN1', 'YES'),
  ('COc1ccc(-c2ccc3c(N4CCOCC4)nc(N4C[C@@H](C)O[C@@H](C)C4)nc3n2)cc1CO', 'NO');

Is Total Cell Count of CCCn1c(=O)c2[nH]c(-c3cnn(Cc4cccc(C(F)(F)F)c4)c3)nc2n(CC)c1=O strictly below 300?
NO

###

Test system: HEK-293T
Experiment: Multiplex assay against HEK293T
Format: toxicity, cell-based
Conditions: human, 24 h, 1 µM, compound concentration 1 uM, replicate 1
Exercise: state measured Population Mitotic Cells (%) for each of the molecules provided.
The answer should read as a number with its unit following.

Examples from the recorded data:
INSERT INTO assay_data (molecule, parameter, reported_value) VALUES
  ('C=C1/C(=C\C=C2/CCC[C@]3(C)[C@@H]([C@H](C)/C=C/[C@H](C)C(C)C)CC[C@@H]23)C[C@@H](O)C[C@@H]1O', 'Population Mitotic Cells (%)', '47%'),
  ('O=C1N/C(=N/c2ccccc2F)S/C1=C\c1ccc(C(=O)O)cc1', 'Population Mitotic Cells (%)', '56%'),
  ('CCOC(=O)c1c(C)[nH]c2ccc3c(c12)CN1CCc2cc(OC)ccc2C1O3 (stereo unspecified)', 'Population Mitotic Cells (%)', '42%'),
  ('O=C(Cc1ccc(-c2ccc(OCCN3CCOCC3)cc2)cn1)NCc1ccccc1', 'Population Mitotic Cells (%)', '60%'),
  ('CNC(=O)c1ccc(Nc2nc(OC3CCCC3)c3c(-c4ccc5nc(C)oc5c4)c[nH]c3n2)c(OC)c1', 'Population Mitotic Cells (%)', '38%'),
  ('Cc1ccc2nc(NCCN)c3ncc(C)n3c2c1.O=C(O)C(F)(F)F.O=C(O)C(F)(F)F', 'Population Mitotic Cells (%)', '64%');

Give Population Mitotic Cells (%) for all molecules that follow.
1. CCN1CCN(Cc2ccc(Nc3ncc(F)c(-c4cc(F)c5nc(C)n(C(C)C)c5c4)n3)nc2)CC1.CS(=O)(=O)O
2. O=C(Nc1ccc(-c2ccnc(Nc3ccc(N4CCOCC4)cc3)n2)cc1)[C@@H]1CCCN1
3. Cc1cn(-c2cc(NC(=O)c3ccc(C)c(Nc4nccc(-c5cccnc5)n4)c3)cc(C(F)(F)F)c2)cn1
4. Cl.Oc1ccc2c3c1O[C@H]1c4[nH]c5c(c4C[C@@]4(O)[C@@H](C2)N(CC2CC2)CC[C@]314)C[C@@]1(O)[C@H]2Cc3ccc(O)c4c3[C@@]1(CCN2CC1CC1)[C@H]5O4

["36%", "48%", "30%", "56%"]

###

Exercise: state measured Population Mitotic Cells (%) for each of the compounds provided.
Test system: Fibroblast
Test: Multiplex assay against human fibroblast
Format: toxicity, cell-based
Details: 24 h, 10 µM, compound concentration 10 uM, replicate 1

Examples from the recorded data:
INSERT INTO measurements (compound, parameter, reported_value) VALUES
  ('Cl.O=C(c1ccc(Nc2nccc(-c3cc4ccccc4s3)n2)cc1)N1CCC(N2CCCC2)CC1', 'Population Mitotic Cells (%)', '28%'),
  ('COc1cccc2cc(-c3nc([C@H]4CC[C@H](C(=O)O)CC4)n4ncnc(N)c34)[nH]c12', 'Population Mitotic Cells (%)', '24%'),
  ('O=C(Nc1cccnn1)N1CCC(=Cc2cccc(Oc3ccc(C(F)(F)F)cn3)c2)CC1', 'Population Mitotic Cells (%)', '35%');

Give Population Mitotic Cells (%) for all compounds that follow.
1. CCc1cccc(CC)c1NC(=O)c1nn(C)c2c1CCc1cnc(Nc3ccc(N4CCN(C)CC4)cc3OC)nc1-2
2. O=C(Nc1ccc(-n2nc(-c3cccnc3)cc2C(F)(F)F)cn1)c1ccc(-c2ccccc2)c(F)c1
3. CN1CCN(C(=O)C(C)(C)c2ccc(C(=O)Nc3cn4cc(-c5cc(C(C)(C)C)cc(C(C)(C)C)c5)ccc4n3)cc2)CC1
4. Cc1ccc2nc(NCCN)c3ncc(C)n3c2c1.O=C(O)C(F)(F)F.O=C(O)C(F)(F)F
5. CCCS(=O)(=O)c1nc(NC2CC2)cc(-c2ccc3c(ccn3C3CC(C)(C)NC(C)(C)C3)c2)n1
6. COc1cc2ncnc(Nc3ccc(F)c(Cl)c3)c2cc1NC(=O)/C=C/CN1CCCCC1 [DACOMITINIB ANHYDROUS]
7. CCc1cccc(CC)c1NC(=O)c1nn(C)c2c1CCc1cnc(Nc3ccc(C(=O)NC4CCN(C)CC4)cc3OC(F)(F)F)nc1-2
8. S=C(NCCCc1c[nH]cn1)NCCCN(Cc1ccc(Cl)c(Cl)c1)c1ccc(Br)cn1

["27%", "33%", "17%", "18%", "24%", "41%", "37%", "46%"]

Give Population Mitotic Cells (%) for all compounds that follow.
1. CN1C2CCC1CC(OC(c1ccc(F)cc1)c1ccc(F)cc1)C2.Cl (stereo not drawn)
2. CCCS(=O)(=O)Nc1ccc(F)c(C(=O)c2c[nH]c3ncc(Cl)cc23)c1F

1: 61%; 2: 29%

###

System: HEK-293T
Assay: Multiplex assay against HEK293T
Type: toxicity, cell-based
Conditions: human, 12 h, 10 µM, compound concentration 10 uM, replicate 1
PARAMETER: Population Pyknosed Nuclei (%)
Numbers only, in %.

Examples from the recorded data:
INSERT INTO results (compound, parameter, reported_value) VALUES
  ('COc1cc2ncnc(Nc3ccc(F)c(Cl)c3)c2cc1NC(=O)/C=C/CN1CCCCC1 [DACOMITINIB ANHYDROUS]', 'Population Pyknosed Nuclei (%)', 15),
  ('CNc1cc(Oc2cc(C(=O)Nc3cc(N4CCN(C)CC4)cc(C(F)(F)F)c3)ccc2C)ncn1', 'Population Pyknosed Nuclei (%)', 80),
  ('CCc1cccc(CC)c1NC(=O)c1nn(C)c2c1CCc1cnc(Nc3ccc(C(=O)NC4CCN(C)CC4)cc3OC(F)(F)F)nc1-2', 'Population Pyknosed Nuclei (%)', 57);

Alright, here's another compound for you.
Lab note: HEK-293T assay, enter Population Pyknosed Nuclei (%) for CCOc1cc(C(=O)N2CCC(N3CCN(C)CC3)CC2)ccc1Nc1ncc2c(n1)N(C1CCCC1)c1ccccc1C(=O)N2C here
79

###

Exercise: state measured Population Membrane Permeable-Phenotype (%) for each of the molecules provided.
Test system: HEK-293T
Test: Multiplex assay against HEK293T
Assay type: toxicity, cell-based
Settings: human, 12 h, 1 µM, compound concentration 1 uM, replicate 2
The answer should read as a number with its unit following.

Examples from the recorded data:
INSERT INTO results (molecule, reported_value) VALUES
  ('CCNc1cc(N[C@H]2CC[C@H](O)CC2)nc(Nc2ccc3c(ccn3Cc3ccccc3)c2)n1', '10%'),
  ('CCCn1c(=O)c2[nH]c(-c3cnn(Cc4cccc(C(F)(F)F)c4)c3)nc2n(CC)c1=O', '10%'),
  ('COc1cc2ncnc(Nc3ccc(F)c(Cl)c3)c2cc1NC(=O)/C=C/CN1CCCCC1 [DACOMITINIB ANHYDROUS]', '7%'),
  ('O=C(Nc1cccnn1)N1CCC(=Cc2cccc(Oc3ccc(C(F)(F)F)cn3)c2)CC1', '7%'),
  ('CN1CCN(C(=O)C(C)(C)c2ccc(C(=O)Nc3cn4cc(-c5cc(C(C)(C)C)cc(C(C)(C)C)c5)ccc4n3)cc2)CC1', '4%');

Give Population Membrane Permeable-Phenotype (%) for all molecules that follow.
1. COc1cccc2cc(-c3nc([C@H]4CC[C@H](C(=O)O)CC4)n4ncnc(N)c34)[nH]c12
2. COc1cc(N2CCN(C)CC2)ccc1Nc1ncc2c(n1)N(C)c1ccccc1C(=O)N2C
3. O=C1NC(=O)C(c2cnc3ccccn23)=C1c1cn2c3c(cc(F)cc13)CN(C(=O)N1CCCCC1)CC2
4. Cc1ccc2nc(NCCN)c3ncc(C)n3c2c1.O=C(O)C(F)(F)F.O=C(O)C(F)(F)F
5. CN1CCC(=C2c3ccccc3CC(=O)c3sccc32)CC1.O=C(O)/C=C/C(=O)O [KETOTIFEN FUMARATE]
6. CCOc1cc2ncc(C#N)c(Nc3ccc(OCc4ccccn4)c(Cl)c3)c2cc1NC(=O)/C=C/CN(C)C
7. Cc1ccc(C(=O)Nc2cccc(C(F)(F)F)c2)cc1Nc1nc(-c2cccnc2)nc2c1cnn2C

1. 2%
2. 6%
3. 16%
4. 1%
5. 12%
6. 3%
7. 7%
